The values you see were collected from ChEMBL document CHEMBL1817662.

The following molecules are listed with their measured CC50 at 72 h values.
Assay: Cytotoxicity in human HepG2(2.2.15) cells after 72 hrs by MTT assay
Format: cell-based

{"columns": ["molecule", "censor symbol", "CC50 at 72 h, µM"],
 "data": [
  ["CC(=O)C[C@H](O)c1cccc2c1CCOC2=O [Swerilactone N]", ">", 510],
  ["CC(=O)c1cc2c(c([C@H](C)O)c1)CCOC2=O [Swerilactone M]", "=", 1840],
  ["CC(=O)C[C@@H]1O[C@@H](C)C(=O)C2=C1C(=O)OCC2 [Swerilactone L]", "=", 1430],
  ["CC(=O)/C=C/c1cccc2c1CCOC2=O [Swerilactone O]", ">", 1440],
  ["Nc1ccn([C@@H]2CS[C@H](CO)O2)c(=O)n1 [LAMIVUDINE]", "=", 33200]
]}

* * *

// reported IC50 per item
System: Hepatitis B virus
Assay: Antiviral activity against HBV infected in human HepG2(2.2.15) cells assessed as reduction in HBeAg antigen secretion after 72 hrs by ELISA
Format: functional, organism-based
Settings: HepG2 2.2.15, 72 h
readout: IC50

{"columns": ["molecule", "target system", "measured"],
 "data": [
  ["CC(=O)c1cc2c(c([C@H](C)O)c1)CCOC2=O [Swerilactone M]", "Hepatitis B virus", "> 2690 µM"],
  ["CC(=O)C[C@H](O)c1cccc2c1CCOC2=O [Swerilactone N]", "Hepatitis B virus", "> 510 µM"],
  ["CC(=O)/C=C/c1cccc2c1CCOC2=O [Swerilactone O]", "Hepatitis B virus", "> 1440 µM"],
  ["CC(=O)C[C@@H]1O[C@@H](C)C(=O)C2=C1C(=O)OCC2 [Swerilactone L]", "Hepatitis B virus", "880 µM"]
]}
